- Method notes: Pharmacokinetic assessment in mice
- Assay type: in vivo
- Assay conditions: plasma; mouse IV (1 mg/kg)
Property label: C0 (ng/mL)
Please respond with the number in ng/mL and leave the unit unwritten.

What value of C0 has been recorded for this entry: O=C(CO[C@H]1C[C@@H](OC(F)(F)F)C1)NC12CC(Nc3nccnc3O[C@H]3C[C@@H](OC(F)(F)F)C3)(C1)C2 [Compound 3]
2620

* * *

- Method notes: Pharmacokinetic assessment in mice
- Assay type: in vivo
- Assay conditions: plasma; mouse IV (1 mg/kg)
- Experimental: The test compound was dissolved in a solvent to prepare a clear solution or homogeneous suspension. Three mice per group were administered 1 mg/kg intravenously in the tails and 30 mg/kg orally (PO). […] Plasma samples were centrifuged to obtain the supernatant, which was prepared as samples for quantitative analysis by LC/MS/MS. […]
Property label: AUC(0-t)
Respond with the figure and its unit, in that order.

I would be grateful if you could share the reported AUC(0-t) for "O=C(CO[C@H]1C[C@@H](OC(F)(F)F)C1)NC12CC(Nc3nccnc3O[C@H]3C[C@@H](OC(F)(F)F)C3)(C1)C2" .
6320 ng·h/mL
